# Experiment Summary: Henry solubility constant Hcp at 298.15 K (mol/(m3 Pa))
# Stated Conditions: reference: Dunnivant et al. (1988)
Measurement Label: Henry solubility constant Hcp

substance_smiles=Clc1ccc(Cl)c(-c2cc(Cl)ccc2Cl)c1 experimental_result=0.029
substance_smiles=Clc1ccc(Cl)c(-c2ccccc2)c1 experimental_result=0.025
substance_smiles=Clc1ccc(-c2ccccc2)cc1Cl experimental_result=0.048
substance_smiles=Clc1cc(Cl)c(-c2ccccc2)c(Cl)c1 experimental_result=0.015
substance_smiles=Clc1cccc(-c2cccc(Cl)c2)c1 experimental_result=0.042

----------
# Experiment Summary: Henry solubility constant Hcp at 298.15 K (mol/(m3 Pa))
# Stated Conditions: reference: Dunnivant et al. (1988)
Binary classification by Henry solubility constant Hcp, with 0.03 as an inclusive lower bound for Yes; all other cases are No.

molecule="Clc1ccc(-c2ccc(Cl)c(Cl)c2)cc1Cl [3,3',4,4'-tetrachlorobiphenyl]" class_label=Yes
molecule="Clc1ccc(-c2ccc(Cl)cc2)cc1 [4,4'-dichlorobiphenyl]" class_label=Yes
molecule="Clc1cccc(Cl)c1-c1c(Cl)cccc1Cl [2,2',6,6'-tetrachlorobiphenyl]" class_label=No
molecule="Clc1ccc(Cl)c(-c2cc(Cl)c(Cl)cc2Cl)c1 [2,2',4,5,5'-pentachlorobiphenyl]" class_label=Yes
molecule="Clc1cc(Cl)c(-c2cc(Cl)c(Cl)cc2Cl)cc1Cl [2,2',4,4',5,5'-hexachlorobiphenyl]" class_label=Yes
molecule="Clc1ccccc1-c1ccccc1Cl [2,2'-dichlorobiphenyl]" class_label=No
molecule="Clc1cccc(-c2cccc(Cl)c2Cl)c1Cl [2,2',3,3'-tetrachlorobiphenyl]" class_label=Yes
molecule="Clc1cc(Cl)c(-c2c(Cl)cc(Cl)cc2Cl)c(Cl)c1 [2,2',4,4',6,6'-hexachlorobiphenyl]" class_label=No
